- target or test system: MMP-9 (Homo sapiens)
- Sequence (P14780 94-707): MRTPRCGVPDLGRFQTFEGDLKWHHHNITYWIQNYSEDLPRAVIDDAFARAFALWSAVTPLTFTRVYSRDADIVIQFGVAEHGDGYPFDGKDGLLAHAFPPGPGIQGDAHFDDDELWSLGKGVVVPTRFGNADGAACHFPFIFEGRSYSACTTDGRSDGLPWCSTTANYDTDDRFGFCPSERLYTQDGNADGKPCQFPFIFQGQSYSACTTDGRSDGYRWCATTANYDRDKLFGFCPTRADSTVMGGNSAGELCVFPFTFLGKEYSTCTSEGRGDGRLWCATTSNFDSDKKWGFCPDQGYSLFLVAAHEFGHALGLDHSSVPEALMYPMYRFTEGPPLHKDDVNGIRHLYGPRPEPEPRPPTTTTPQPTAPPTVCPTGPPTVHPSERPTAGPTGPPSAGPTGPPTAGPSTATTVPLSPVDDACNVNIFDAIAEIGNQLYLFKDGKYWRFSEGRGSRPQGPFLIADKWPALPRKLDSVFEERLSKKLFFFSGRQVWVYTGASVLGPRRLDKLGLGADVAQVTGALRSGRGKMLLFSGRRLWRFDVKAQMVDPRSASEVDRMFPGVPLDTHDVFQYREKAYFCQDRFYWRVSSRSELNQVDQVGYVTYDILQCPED
- assay explanation: MMP-9 inhibition (thiopeptide or fluorescent peptide substrate)
- Format: biochemical
- run conditions: read-out: MMP-9 IC50
Entries and their measured pIC50 follow.
Remember, pIC50 is on a log scale: it is -log10 of the molar concentration.

CC#CCOc1ccc(S(=O)(=O)N2CCN(C(C)=O)CC2C(=O)NO)cc1 (stereo not drawn)
7.06

Request: pIC50, test system MMP-9 (Homo sapiens), entry CC#CCOc1ccc(S(=O)(=O)N(C)C(C(=O)NO)c2ccc(OCCCNC(=O)OC(C)(C)C)cc2)cc1 (stereo not drawn)
7.34

Request: pIC50, test system MMP-9 (Homo sapiens), entry CC#CCOc1ccc(S(=O)(=O)N(Cc2cccnc2)[C@@H](C(=O)NO)C2CCCCC2)cc1
6.47

Request: pIC50, test system MMP-9 (Homo sapiens), entry CC#CCOc1ccc(S(=O)(=O)N2CCN(C(=O)Nc3ccc(F)cc3)CC2C(=O)NO)cc1 (stereo not drawn)
6.76

Request: pIC50, test system MMP-9 (Homo sapiens), entry CC#CCOc1ccc(S(=O)(=O)N(CCC)C(C(=O)NO)C(C)C)cc1 (stereo not drawn)
6.32

Request: pIC50, test system MMP-9 (Homo sapiens), entry CC#CCOc1ccc(S(=O)(=O)N[C@@H](C(=O)NO)C(C)(C)C)cc1
6.65
